System: Fibroblast
Assay: Multiplex assay against human fibroblast
Format: toxicity, cell-based
Details: 12 h, 10 µM, compound concentration 10 uM, replicate 2
Binarize Population Apoptotic (%) at 40%; below is True, at or above is False.

MOLECULE | EXPERIMENTAL TARGET | CLASS NAME
N[C@](CC1c2ccccc2Oc2ccccc21)(C(=O)O)[C@H]1C[C@@H]1C(=O)O | Fibroblast | True

Ask: Is the reported Population Apoptotic (%) for CC(C)(C)c1ccc(CSc2cnn(C(C)(C)C)c(=O)c2Cl)cc1 [PYRIDABEN] strictly below 40%?
Result: False

Ask: Is the reported Population Apoptotic (%) for CCn1c(-c2nc3cc(C(=O)N4CCCC(N)C4)ccc3n2C)cc2ccccc21.Cl (stereo unspecified) strictly below 40%?
Result: True

Ask: Is the reported Population Apoptotic (%) for COc1cc2nc(N3CCN(C(=O)c4ccco4)CC3)nc(N)c2cc1OC.Cl [PRAZOSIN HYDROCHLORIDE] strictly below 40%?
Result: True

Ask: Is the reported Population Apoptotic (%) for Cc1c(Cc2ccc3ccccc3n2)c2cc(F)ccc2n1CC(=O)O [TIMAPIPRANT] strictly below 40%?
Result: False

Ask: Is the reported Population Apoptotic (%) for COc1cc(Nc2ncc3c(n2)-c2ccc(Cl)cc2C(c2c(F)cccc2OC)=NC3)ccc1C(=O)O [ALISERTIB] strictly below 40%?
Result: False

====

System: Fibroblast
Assay: Multiplex assay against human fibroblast
Type: toxicity, cell-based
Settings: 24 h, 10 µM, compound concentration 10 uM, replicate 1
ASSAY METRIC: Population Pyknosed Nuclei (%)
Answer with a number only, understood to be in %.

Below: 3 compounds and their reported Population Pyknosed Nuclei (%).
COMPOUND | Population Pyknosed Nuclei (%)
Cc1c(Cc2ccc3ccccc3n2)c2cc(F)ccc2n1CC(=O)O [TIMAPIPRANT] | 8
COC(c1ccccc1)(c1ccccc1)[C@H](Oc1nc(C)cc(C)n1)C(=O)O [AMBRISENTAN] | 18
COc1cc(OC2CCN(C(C)=O)CC2)ccc1C(=O)N1CCC(N2C(=O)OCc3ccccc32)CC1 | 11

Simply: CN1CCN(c2ccc(Nc3c4ccccc4nc4ccccc34)cc2)CC1.Cl.Cl.O , Fibroblast, Population Pyknosed Nuclei (%) = 12

Reference for the values: ChEMBL document CHEMBL5058577
